- System: HT-29
- experiment summary: Ratio of 5-fluorouracil IC50 to compound IC50 for human HT-29 cells after 48 hrs by sulforhodamine B assay
- Assay type: functional
Quick reference for Ratio IC50 among some molecules
quantity: Ratio IC50

molecule smiles	quantity	meas value
O=C1/C(=C\c2ccc(F)cc2)CN(C(=O)CC(=O)N2C/C(=C\c3ccc(F)cc3)C(=O)/C(=C/c3ccc(F)cc3)C2)C/C1=C\c1ccc(F)cc1	Ratio IC50	35
O=c1[nH]cc(F)c(=O)[nH]1	Ratio IC50	1
COc1ccc(/C=C2\CN(C(=O)C(=O)N3C/C(=C\c4ccc(OC)cc4)C(=O)/C(=C/c4ccc(OC)cc4)C3)C/C(=C\c3ccc(OC)cc3)C2=O)cc1	Ratio IC50	37
O=C1/C(=C\c2ccccc2)CN(C(=O)CC(=O)N2C/C(=C\c3ccccc3)C(=O)/C(=C/c3ccccc3)C2)C/C1=C\c1ccccc1	Ratio IC50	2117
O=C1/C(=C/c2ccc(Cl)cc2)CN(C(=O)C(=O)N2C/C(=C\c3ccc(Cl)cc3)C(=O)/C(=C/c3ccc(Cl)cc3)C2)C/C1=C\c1ccc(Cl)cc1	Ratio IC50	8
COc1cc(/C=C2/CN(C(=O)CC(=O)N3C/C(=C\c4cc(OC)c(OC)c(OC)c4)C(=O)/C(=C/c4cc(OC)c(OC)c(OC)c4)C3)C/C(=C\c3cc(OC)c(OC)c(OC)c3)C2=O)cc(OC)c1OC	Ratio IC50	159
